REPORTED PROPERTY: melting point

COc1ccc(OC)c(-c2nc3ccc(F)cc3s2)c1 :: 105 to 107 °C
COc1cc(OC)cc(-c2nc3ccc([N+](=O)[O-])cc3s2)c1 :: 199 to 200 °C

Identify melting point associated with the compound "COc1cc(OC)cc(-c2nc3ccc(Br)cc3s2)c1"
164 to 165 °C

----------
Molecular target: recombinant human NQO2 (Homo sapiens, UniProt P16083)
Experiment: NQO2 enzyme inhibition assay (DCPIP substrate, NRH or EPR co-substrate)
Type: biochemical
Settings: DCPIP substrate, NRH co-substrate; read-out: IC50 for inhibition of NQO2
Protocol: In this assay, dichlorophenolindophenol (DCPIP) was used as a substrate for NQO2. NRH (SI or EP0152R) was used as the co-substrate for the enzyme. The NQO2 enzyme assay was carried out using a […] GO spectrophotometer by measuring the absorbance of DCPIP at 600 nm. NRH [31] or EPR were used as co-substrates. […] The initial rates of the enzyme reactions were calculated from the curve by taking the initial slopes of the reactions using the formula (ΔAb/ΔTime). […]
REPORTED PROPERTY: IC50 (nM)
Express it in nM; write the number only.

Would you please look over these solved cases?
COc1cccc(-c2nc3ccc(F)cc3s2)c1 [Compound 53] :: 908
COc1ccc(OC)c(-c2nc3ccc(F)cc3s2)c1 [Compound 29] :: 2060
COc1cc(-c2nc3ccc(C#N)cc3s2)cc(OC)c1OC [Compound 44] :: 13300
Fc1cccc(-c2nc3ccc(F)cc3s2)c1 [Compound 55] :: 52600

Give reported IC50 value for COc1ccc(OC)c(-c2nc3ccc(C(F)(F)F)cc3s2)c1 [Compound 26]
2770

Give the measured IC50 for COc1cc(-c2nc3ccc(NC(C)=O)cc3s2)cc(OC)c1OC [Compound 49]
31

Give a short answer stating reported IC50 for COc1cc(OC)cc(-c2nc3ccc(NC(C)=O)cc3s2)c1 [Compound 12] .
605

Specify IC50 for COc1cc(OC)cc(-c2nc3ccc(C(F)(F)F)cc3s2)c1 [Compound 5] and stop.
123

Answer with the recorded IC50 of Oc1cc(O)cc(-c2nc3ccc(O)cc3s2)c1 [Compound 15] only.
25

Given the molecule COc1ccc(-c2nc3ccc(F)cc3s2)cc1OC [Compound 37] , write its reported IC50.
5930

Output IC50 of COc1ccc(-c2nc3ccc(Br)cc3s2)c(OC)c1 [Compound 17]
56900

Supply reported IC50 belonging to this molecule: COc1ccc(-c2nc3ccc(I)cc3s2)cc1OC [Compound 38]
22900

----------
Molecular target: recombinant human NQO2 (Homo sapiens, UniProt P16083)
Sequence (P16083 1-231): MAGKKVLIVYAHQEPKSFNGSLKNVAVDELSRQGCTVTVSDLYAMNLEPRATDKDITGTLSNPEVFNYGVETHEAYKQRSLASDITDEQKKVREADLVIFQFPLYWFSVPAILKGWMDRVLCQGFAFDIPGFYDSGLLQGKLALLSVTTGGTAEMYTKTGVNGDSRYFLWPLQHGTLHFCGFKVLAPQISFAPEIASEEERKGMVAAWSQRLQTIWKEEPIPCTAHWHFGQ
Assay: NQO2 enzyme inhibition assay (DCPIP substrate, NRH or EPR co-substrate)
Assay type: biochemical
Conditions: inhibition of NQO2; DCPIP 40 µM, NRH or EPR 200 µM, phosphate buffer pH 7.4, 37 °C, triplicate; read-out: IC50 (µM) ± SD
Flag rule - IC50 less than 0.9 µM flags T; the remaining entries get F.

Would you please look over these solved cases?
COc1ccc(OC)c(-c2nc3ccc(C(F)(F)F)cc3s2)c1 [Compound 26] :: F
COc1ccc(-c2nc3ccc(C(F)(F)F)cc3s2)cc1OC [Compound 34] :: F
COc1cc(OC)cc(-c2nc3ccc(C#N)cc3s2)c1 [Compound 7] :: F
COc1ccc(-c2nc3ccc(C#N)cc3s2)cc1OC [Compound 36] :: F
COc1cc(OC)cc(C(=O)Nc2ccc3nc(-c4cc(OC)c(OC)c(OC)c4)sc3c2)c1 [Compound 51] :: F

Lab log: compare recorded IC50 with 0.9 µM; is it strictly lower for COc1cc(-c2nc3ccc(I)cc3s2)cc(OC)c1OC [Compound 46] ?
T

Does COc1ccc(-c2nc3ccc(OC)cc3s2)c(OC)c1 [Compound 16] have IC50 strictly under 0.9 µM?
F

Item Fc1cccc(-c2nc3ccc(F)cc3s2)c1 [Compound 55] : IC50 beneath 0.9 µM, strictly?
F

Hello, is IC50 of the following compound strictly smaller than 0.9 µM? COc1ccc(-c2nc3ccc(F)cc3s2)cc1OC [Compound 37]
F
